Provenance of the data: the supplement of paper PMC10567573

B1: DLC1 (parent)
chain: AIQGISEKEKAEIEAKEACDWLRA

# Variants of: B1
# Protocol details: protein stability index of a GFP-peptide fusion (GPS, HEK-293T) (PSI 1-6); higher = more stable;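 further: lentivirally expressed fusions sorted by FACS into six bins by GFP to DsRed ratio, PSI derived from sequencing read proportions per bin multiplied by bin number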
# Study conditions: c terminus: a fixed tail appended
Catalogue of protein stability index values
Result type: protein stability index

| Alteration | Result value |
| --- | --- |
| C19G | 4.43 |
| W21L | 5.22 |
| G4H | 4.36 |
| E9L | 2.97 |
| R23E | 5.36 |
| A11M | 3.99 |
| K16V | 4.17 |
| E12N | 4.5 |
| A18V | 4.26 |
| I5P | 4.46 |
| E17Q | 3.73 |
| A1S | 4.67 |
| A1R | 4.55 |
| K8P | 4.72 |
| I13R | 4.53 |
| E12C | 3.85 |
| K16T | 4.87 |
| D20V | 3.81 |
| I5A | 4.77 |
| K10H | 4.38 |
| E14A | 4.1 |
| K16S | 4.1 |
| E9W | 3.63 |
| L22G | 4.98 |
| D20R | 3.19 |
| E9A | 4.19 |
| E17D | 4.18 |
| A24N | 4.75 |
| I5R | 4.57 |
| E9F | 2.69 |
| S6V | 4.14 |
| I13Y | 4.46 |
| E14C | 4.07 |
| C19M | 4.39 |
| E17P | 4.41 |
| E14Y | 3.91 |
| A24M | 3.52 |
| C19Q | 4.77 |
| A1K | 4.32 |
| C19R | 4.45 |
| K10M | 4.67 |
| K10G | 4.17 |
| L22I | 4.98 |
| A11R | 4.23 |
| E17R | 3.7 |
| E7S | 4.15 |
